Reference for the values: ChEMBL document CHEMBL4177730

# Tested on: OVCAR-3
# experimentDescription: Growth inhibition of human OVCAR3 cells at 10 uM after 48 hrs by sulforhodamine B assay
# Type: functional, cell-based
Calls of active or inactive are those of the source. The calls are words filed in the database; no cut-off is given here.
Answer with one of the outcomes given here: active, inactive

Ask | State the result this test recorded for `O=C1/C(=C\c2cccn2C(=O)c2ccc(Cl)cc2)c2ccccc2N1c1c(Cl)cccc1Cl` .
Reply | inactive

Ask | Now the same for `O=C1/C(=C\c2cccn2Cc2ccc(F)cc2)c2ccccc2N1c1c(Cl)cccc1Cl`
Reply | inactive

Ask | And for `O=C1/C(=C\c2ccc[nH]2)c2ccccc2N1c1c(Cl)cccc1Cl` ?
Reply | inactive

Ask | Entry `O=C1/C(=C\c2cccn2C(=O)c2ccc(Cl)s2)c2ccccc2N1c1c(Cl)cccc1Cl` please
Reply | inactive

Ask | Queued: `O=C1/C(=C\c2cccn2Cc2ccc(Cl)cc2)c2ccccc2N1c1c(Cl)cccc1Cl`
Reply | inactive

Ask | // repeat for `O=C1/C(=C\c2cccn2C(=O)c2ccccc2)c2ccccc2N1c1c(Cl)cccc1Cl` and report
Reply | inactive

Ask | Another compound: `Cc1ccc(S(=O)(=O)n2cccc2/C=C2\C(=O)N(c3c(Cl)cccc3Cl)c3ccccc32)cc1`
Reply | inactive

Ask | Input `O=C1/C(=C\c2cccn2Cc2ccccc2)c2ccccc2N1c1c(Cl)cccc1Cl`
Reply | active

====

# System: A549
# experimentDescription: Growth inhibition of human A549/ATCC cells at 10 uM after 48 hrs by sulforhodamine B assay
# Type: functional, cell-based
The source made the active and inactive calls. No cut-off for these calls is given here.
Respond using exactly one of the listed classes: active, inactive

Ask | Look up the recorded call for `Cc1ccc(S(=O)(=O)n2cccc2/C=C2\C(=O)N(c3c(Cl)cccc3Cl)c3ccccc32)cc1` in this test.
Reply | inactive

Ask | Then what about the compound `O=C1/C(=C\c2cccn2C(=O)c2ccccc2)c2ccccc2N1c1c(Cl)cccc1Cl` ?
Reply | inactive

Ask | Repeat for the following compound: `O=C1/C(=C\c2cccn2Cc2ccccc2)c2ccccc2N1c1c(Cl)cccc1Cl`
Reply | active

Ask | Entry `O=C1/C(=C\c2cccn2Cc2ccc(Cl)cc2)c2ccccc2N1c1c(Cl)cccc1Cl` please
Reply | inactive

Ask | Same lookup for `O=C1/C(=C\c2cccn2C(=O)c2ccc(Cl)s2)c2ccccc2N1c1c(Cl)cccc1Cl` , please.
Reply | inactive

Ask | Similarly, `O=C1/C(=C\c2cccn2Cc2ccc(F)cc2)c2ccccc2N1c1c(Cl)cccc1Cl` ?
Reply | inactive

Ask | Note, next up: `O=C1/C(=C\c2ccc[nH]2)c2ccccc2N1c1c(Cl)cccc1Cl`
Reply | inactive

Ask | Next compound: `O=C1/C(=C\c2cccn2C(=O)c2ccc(Cl)cc2)c2ccccc2N1c1c(Cl)cccc1Cl`
Reply | inactive

====

# Test system: SK-MEL-5
# experimentDescription: Growth inhibition of human SK-MEL-5 cells at 10 uM after 48 hrs by sulforhodamine B assay
# Format: functional, cell-based
Active and inactive are the calls of the source. The rule behind the calls is not given here.
Give your call using only these classes: active, inactive

Ask | Which outcome was assigned to `O=C1/C(=C\c2ccc[nH]2)c2ccccc2N1c1c(Cl)cccc1Cl` in this test?
Reply | inactive

Ask | // query: `Cc1ccc(S(=O)(=O)n2cccc2/C=C2\C(=O)N(c3c(Cl)cccc3Cl)c3ccccc32)cc1`
Reply | inactive

Ask | Record: `O=C1/C(=C\c2cccn2Cc2ccccc2)c2ccccc2N1c1c(Cl)cccc1Cl`
Reply | active

Ask | Continue with `O=C1/C(=C\c2cccn2C(=O)c2ccc(Cl)cc2)c2ccccc2N1c1c(Cl)cccc1Cl`
Reply | inactive

Ask | Then this molecule: `O=C1/C(=C\c2cccn2C(=O)c2ccccc2)c2ccccc2N1c1c(Cl)cccc1Cl`
Reply | inactive

Ask | What would you report for `O=C1/C(=C\c2cccn2Cc2ccc(Cl)cc2)c2ccccc2N1c1c(Cl)cccc1Cl` ?
Reply | inactive

Ask | Do the same for `O=C1/C(=C\c2cccn2C(=O)c2ccc(Cl)s2)c2ccccc2N1c1c(Cl)cccc1Cl` please
Reply | inactive

Ask | Then this molecule: `O=C1/C(=C\c2cccn2Cc2ccc(F)cc2)c2ccccc2N1c1c(Cl)cccc1Cl`
Reply | inactive
